Tested on: SF-539 CNS
Protocol summary: NCI-60 one-dose screen, 48 h (100 = growth as untreated, 0 = no growth, -100 = all killed)
Assay conditions: 10 µM unless noted
Compounds without any hit were thinned out: in the full panel of roughly 83,000, 20% have a hit.
Recorded endpoint: growth (%)
Express it in %; write the number only.

INSERT INTO results (compound, test_system, recorded_endpoint, recorded_measurement) VALUES
  ('CN1C(=O)/C(=C/c2ccc(C(=O)Nc3ncc(Cc4cccc(C(F)(F)F)c4)s3)cc2)SC1=S', 'SF-539 CNS', 'growth', 56.3),
  ('C1CCC(N2CN3c4nonc4N4CN(C5CCCCC5)CN5c6nonc6N(C2)C3C45)CC1 (stereo not given)', 'SF-539 CNS', 'growth', 101),
  ('CCCOC(=O)Nc1nc2ccc(SCC)cc2s1', 'SF-539 CNS', 'growth', 80.9),
  ('COc1ccc(-c2nc3c(c(-c4ccc(Cl)cc4)nn3-c3ccccc3)c(-c3ccccc3)c2C#N)cc1', 'SF-539 CNS', 'growth', 103),
  ('COc1ccc(Nc2ncc(C#N)c(NCCCNC(=O)C3CCC3)n2)cc1', 'SF-539 CNS', 'growth', 28.5);

[Q] I would be grateful if you could share the reported growth for Fc1cccc(CNc2c3ccccc3nc3ccccc23)c1 .
[A] 26.9

[Q] I would be grateful if you could share the reported growth for O=C(NCCNC(c1ccccc1)C(NCCNC(=O)c1ccccc1)c1ccccc1)c1ccccc1 (stereo not given) .
[A] 103

[Q] I would be grateful if you could share the reported growth for CC(=O)c1sc(-c2ccc(F)cc2)cc1O .
[A] 114

[Q] I would be grateful if you could share the reported growth for NS(=O)(=O)c1ccc(C(=O)N=Nc2c(O)[nH]c3ccc(Cl)cc23)cc1 .
[A] 96.4

[Q] I would be grateful if you could share the reported growth for COc1ccc(C/C(C)=C(\c2ccc(Cl)cc2)c2ccc(OCCN3CCCC3)cc2)cc1 .
[A] 88

----------
Tested on: HCT-116 colon
Protocol summary: NCI-60 one-dose screen, 48 h (100 = growth as untreated, 0 = no growth, -100 = all killed)
Assay conditions: 10 µM unless noted
Compounds without any hit were thinned out: in the full panel of roughly 83,000, 20% have a hit.
Could you please mark Y for values of growth below 80% and N for values at or above it?

Please review the following examples before continuing.
INSERT INTO assay_data (compound, assigned_class) VALUES
  ('C=CC(CC(c1ccccc1)(c1ccccc1)c1ccccc1)N(CC)CC (stereo not given)', 'Y'),
  ('CCOC(=O)NCCCC(=O)NCCc1ccccc1', 'N'),
  ('COc1ccc(OC)c(Nc2nnc(-c3cc(OC)c(OC)c(OC)c3)o2)c1', 'N'),
  ('CCOC(=O)C#Cc1c(C(=O)OCC)nnn1[C@@H]1O[C@H](COC)[C@@H](OC)[C@H]1OC', 'N'),
  ('Cc1ccc(O)c(NC(=O)c2cccc(Nc3ccnc(C(F)(F)F)c3)c2)c1', 'Y'),
  ('Oc1nc(NCc2ccccc2)sc1/C=C1\C=Nc2ncccc21', 'Y'),
  ('N#Cc1nn(-c2cc(=O)[nH]c3ccc(Br)cc23)c(N)c1C#N', 'N'),
  ('C[C@@H]1CN(c2cnc(C(=O)Nc3cc(F)cc4cccnc34)cn2)C[C@H](C)N1', 'Y');

[Q] Record O=C(Nc1ncc(Cc2ccccc2)s1)c1sc2ccccc2c1Cl : is its growth strictly below 80%?
[A] Y

[Q] Record COC(=O)/C(CCC=C(C)C)=C1\[C@@H](OC(C)=O)C[C@@]2(C)[C@H]1C/C(=N/O)[C@H]1[C@@]3(C)CC/C(=N\O)[C@@H](C)[C@@H]3CC[C@@]12C : is its growth strictly below 80%?
[A] N

[Q] Record O=C(/C=C/c1cccc(Oc2ccccc2)c1)c1ccc(Nc2nc(Nc3ccc(F)cc3)nc(Nc3ccc(Cl)cc3)n2)cc1 : is its growth strictly below 80%?
[A] N

[Q] Record N#C/C(=C\c1ccc(-c2cccc(Cl)c2)o1)C(=O)Nc1ncc(Cc2ccc(Cl)cc2)s1 : is its growth strictly below 80%?
[A] Y

Hello, the source for this data is PubChem BioAssay (NCI), in case you need it.
